Listing of recorded Kd by entry.
assayTarget: Extracellular domain (ECD) of ROR1 fused to human Fc region (UniProt Q01973)
Sequence (Q01973 30-406 limits assumed): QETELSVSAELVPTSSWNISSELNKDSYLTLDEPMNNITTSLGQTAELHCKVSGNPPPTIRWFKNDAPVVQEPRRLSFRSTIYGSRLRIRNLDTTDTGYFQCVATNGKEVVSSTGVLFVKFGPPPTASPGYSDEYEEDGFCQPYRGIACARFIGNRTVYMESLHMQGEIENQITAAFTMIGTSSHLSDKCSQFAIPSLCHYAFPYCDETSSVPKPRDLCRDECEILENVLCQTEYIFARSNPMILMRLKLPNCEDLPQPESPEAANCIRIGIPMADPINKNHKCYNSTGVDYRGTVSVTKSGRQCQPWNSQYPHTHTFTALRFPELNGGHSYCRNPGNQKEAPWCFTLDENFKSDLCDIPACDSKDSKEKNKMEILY
assayRemarks: ROR1-Fc affinity of the construct's binding domain; method not given
Provide the reading as a plain figure in nM.

Guide cases for Kd, answers given:
Can you look up the measured Kd of Hum ROR1_18VH_(G4S)3x_VL_04 (antibody, mouse IgG1, V domains shown, The name reads as an scFv with a (G4S)3 linker; The method text says variable regions were fused to mouse constant regions (chimeric mouse IgG1); VH/VL are tied by the numbers in the name) VH: EVQLVESGGGLVQPGGSLRLSCSASGFTFSSYAMSWVRQVPGKGLVWISSISRGGTTYYADSVRGRFIISRDNAKNTLYLEMNNLRGEDTAVYYCARYDYDGYYAMDYWGQGTLVTVSS VL: DIQMTQSPSSLSASVGDRVTITCQASPDINSYLNWYQQKPGKAPKLLIYRANNLETGVPSRFSGSGSGTDFTLTISSLQPEDIATYYCLQYDEFPYTFGQGTKLEIK for me?
0.271

Can you look up the measured Kd of Hum ROR1_05VH_(G4S)3x_VL_14 (antibody, mouse IgG1, V domains shown, The name reads as an scFv with a (G4S)3 linker; The method text says variable regions were fused to mouse constant regions (chimeric mouse IgG1); VH/VL are tied by the numbers in the name) VH: EVQLVESGGGLVQPGGSLRLSCAASGFTFSSYAMSWVRQAPGKGLEWVSSISRGGTTYYPDSVKGRFTISRDNSKNTLYLQMNSLRAEDTAVYYCGRYDYDGYYAMDYWGQGTLVTVSS VL: DIQMTQSPSSLSASVGDRVTITCKASPDINSYLNWYQQKPGKAPKLLIYRANRLVDGVPSRFSGSGSGTDYTLTISSLQPEDFATYYCLQYDEFPYTFGAGTKVEIK for me?
0.193

Can you look up the measured Kd of Hum ROR1_18VH_(G4S)3x_VL_14 (antibody, mouse IgG1, V domains shown, The name reads as an scFv with a (G4S)3 linker; The method text says variable regions were fused to mouse constant regions (chimeric mouse IgG1); VH/VL are tied by the numbers in the name) VH: EVQLVESGGGLVQPGGSLRLSCSASGFTFSSYAMSWVRQVPGKGLVWISSISRGGTTYYADSVRGRFIISRDNAKNTLYLEMNNLRGEDTAVYYCARYDYDGYYAMDYWGQGTLVTVSS VL: DIQMTQSPSSLSASVGDRVTITCKASPDINSYLNWYQQKPGKAPKLLIYRANRLVDGVPSRFSGSGSGTDYTLTISSLQPEDFATYYCLQYDEFPYTFGAGTKVEIK for me?
0.201

Can you look up the measured Kd of Murine ROR1_v2 binding domain (VL and VH of MurineROR1_v2 (VL-VH)) (antibody, V domains shown, also called Murine ROR1_v2 VH; murine ROR1 scFv) VH: EVKLVESGGGLVKPGGSLKLSCAASGFTFSSYAMSWVRQIPEKRLEWVASISRGGTTYYPDSVKGRFTISRDNVRNILYLQMSSLRSEDTAMYYCGRYDYDGYYAMDYWGQGTSVTVSS VL: DVQITQSPSSLYASLGERVTITCKASPDINSYLSWFQQKPGKSPKTLIYRANRLVDGVPSRFSGGGSGQDYSLTINSLEYEDMGIYYCLQYDEFPYTFGGGTKLEMK for me?
23.1

Can you look up the measured Kd of Clone 05 (antibody, V domains shown, Variable regions fused to mouse constant regions (chimeric mouse IgG1 mAb) for SPR; also called hROR1 VH_05 / hROR1 VL_05) VH: EVQLVESGGGLVQPGGSLRLSCAASGFTFSSYAMSWVRQAPGKGLEWVSSISRGGTTYYPDSVKGRFTISRDNSKNTLYLQMNSLRAEDTAVYYCGRYDYDGYYAMDYWGQGTLVTVSS VL: DIQMTQSPSSLSASVGDRVTITCKASPDINSYLSWYQQKPGKAPKLLIYRANRLVDGVPSRFSGSGSGTDFTLTISSLQPEDIATYYCLQYDEFPYTFGQGTKLEIK for me?
35

Others:
Can you look up the measured Kd of Hum_design_14_variant3 (antibody, V domains shown, Variable regions fused to mouse constant regions (chimeric mouse IgG1 mAb) for SPR; also called hROR1 VH_14-3 / hROR1 VL_14-3) VH: EVQLVESGGGLVQPGGSLRLSCAASGFTFSSYAMSWVRQAPGKGLEWVASISRGGTTYYADSVKGRFTISRDNSKNTLYLQMNSLRAEDTAVYYCGRYDYDGYYAMDYWGQGTLVTVSS VL: DIQMTQSPSSLSASVGDRVTITCKASPDINSYLNWYQQKPGKAPKLLIYRANRLVDGVPSRFSGSGSGTDFTLTISSLQPEDIATYYCLQYDEFPYTFGGGTKVEIK for me?
0.959
